Target: Nuclear receptor ROR-gamma (Mus musculus) (UniProt P51450)
Sequence (P51450 whole entry, looked up): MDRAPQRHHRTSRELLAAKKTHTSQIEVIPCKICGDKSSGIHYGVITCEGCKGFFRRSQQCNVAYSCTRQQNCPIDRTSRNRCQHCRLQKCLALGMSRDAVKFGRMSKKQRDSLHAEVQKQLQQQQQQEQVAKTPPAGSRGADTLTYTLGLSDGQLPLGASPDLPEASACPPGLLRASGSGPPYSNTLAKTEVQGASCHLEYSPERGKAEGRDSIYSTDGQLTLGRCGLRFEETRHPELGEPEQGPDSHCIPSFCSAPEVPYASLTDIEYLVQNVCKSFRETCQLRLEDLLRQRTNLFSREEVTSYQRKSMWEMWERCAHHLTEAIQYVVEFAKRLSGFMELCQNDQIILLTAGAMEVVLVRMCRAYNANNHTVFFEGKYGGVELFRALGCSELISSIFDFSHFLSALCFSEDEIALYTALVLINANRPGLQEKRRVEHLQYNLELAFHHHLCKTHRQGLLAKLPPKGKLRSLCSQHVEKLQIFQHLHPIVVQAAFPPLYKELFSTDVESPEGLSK
Assay: qHTS for inhibitors of ROR gamma transcriptional activity; also: nearly all actives have a fitted effect of over 60% in size; also: potency is read from the fitted curve at half-maximal effect
Conditions: Drosophila S2 Gal4-RORgamma UAS-luciferase reporter, 20 h; series mostly up to 53.6 µM
Source text: NIH Molecular Libraries Probe Production Network [MLPCN] NIH Chemical Genomics Center [NCGC] […] Small molecule inhibitors of ROR gamma activity are detected by a decrease in luciferase reporter activity. […]
Among all 310,000 compounds or so, about 17,000 (5.5%) were called active. Inconclusive results (about 11%) are left out. The list comes from a sample in which actives are over-represented; it also holds close analogues and randomly drawn compounds.
measurement-kind: Potency

Answered examples (8):
[
  {
    "compound": "COc1cc(CCC(=O)N2CCN(c3ccccc3Cl)CC2)cc(OC)c1OC",
    "Potency": "inactive"
  },
  {
    "compound": "CN(C)C(=O)CCC(=O)N1CCCCC1C(=O)Nc1ccc(Oc2ccccc2F)cc1 (stereo not given)",
    "Potency": "inactive"
  },
  {
    "compound": "CN(CCOc1ccccc1)Cc1nc2cc(Cl)ccc2c(=O)[nH]1",
    "Potency": "4.47 µM (active)"
  },
  {
    "compound": "COc1cccc(C(=O)N/N=C(\\C)c2cccc(NC(=O)c3ccc(F)cc3)c2)c1OC",
    "Potency": "inactive"
  },
  {
    "compound": "O=C(CO/N=C/c1ccccc1O)NNC(=O)c1ccccc1Cl",
    "Potency": "20 µM (active)"
  },
  {
    "compound": "CC1CCC2CCCCC2N1C(=O)c1cc([N+](=O)[O-])cc([N+](=O)[O-])c1 (stereo not given)",
    "Potency": "inactive"
  },
  {
    "compound": "O=c1[nH]c(CN2CCOCC2)nc2cc(Cl)ccc12",
    "Potency": "inactive"
  },
  {
    "compound": "O=C(CO/N=C/c1ccccc1OC(F)F)NC1CCCC1",
    "Potency": "inactive"
  }
]

# return Potency for each item in the list
1. CN(Cc1nc2ccccc2c(=O)[nH]1)Cc1cc(=O)oc2ccc3ccccc3c12
2. CN1CCN(C(=O)C(=O)c2cn(CC(=O)N3CCCC3)c3ccccc23)CC1

inactive
inactive

* * *

Target: Nuclear receptor ROR-gamma (Mus musculus)
Assay: qHTS for inhibitors of ROR gamma transcriptional activity; also: nearly all actives have a fitted effect of over 60% in size
Settings: Drosophila S2 Gal4-RORgamma UAS-luciferase reporter, 20 h; series mostly up to 53.6 µM
Among all 310,000 compounds or so, about 17,000 (5.5%) were called active. Inconclusive results (about 11%) are left out. Calls come from the whole dose curve; as a rule, active = well fitted inhibition curve with a large enough effect; inconclusive = small, poorly fitted or top-dose-only effect, or effect the other way; inactive = no such curve, though single readings can be large or run the other way. The list comes from a sample in which actives are over-represented; it also holds close analogues and randomly drawn compounds.
One label from this list, please: active, inactive

[
  {
    "molecule": "COC(=O)c1ccc(S(=O)(=O)N2CCc3ccccc3C2)cc1",
    "category-label": "inactive"
  }
]

Hey, what did the test say about `Fc1cc(F)c2nc(N3CCOCC3)sc2c1` ?
inactive

Hey, what did the test say about `Cc1ccc(-n2c(C)cc(/C=N\NC(=O)CC(=O)NC(C)C)c2C)cc1` ?
inactive

* * *

Molecular target: Nuclear receptor ROR-gamma (Mus musculus) (UniProt P51450)
Experiment: qHTS for inhibitors of ROR gamma transcriptional activity; also: nearly all actives have a fitted effect of over 60% in size
Settings: Drosophila S2 Gal4-RORgamma UAS-luciferase reporter, 20 h; series mostly up to 53.6 µM
Out of some 310,000 compounds screened, about 17,000 (5.5%) were called active. Roughly 11% stayed inconclusive and do not appear here. Calls come from the whole dose curve; as a rule, active = well fitted inhibition curve with a large enough effect; inconclusive = small, poorly fitted or top-dose-only effect, or effect the other way; inactive = no such curve, though single readings can be large or run the other way. The full list was thinned out, with actives kept by preference.
One label from this list, please: active, inactive

A selection of reference data follows.
[
  {
    "compound": "CCCCCN(C(=O)CCC(=O)OCC(=O)NCc1ccc(OC)cc1)c1c(N)n(CCCC)c(=O)[nH]c1=O",
    "category-label": "inactive"
  },
  {
    "compound": "CCCc1nnc(SCC(=O)Nc2ccc(C(=O)OCC)cc2)o1",
    "category-label": "inactive"
  },
  {
    "compound": "N#C/C=C/N1CCN(Cc2ccc3c(c2)OCO3)CC1",
    "category-label": "inactive"
  }
]

Kindly review the next compound as well.
Hey, what did the test say about COc1ccccc1NC(=O)c1cc(N2C(=O)C3C4CCC(C4)C3C2=O)ccc1Cl (stereo not given) ?
inactive
